Data credit: PubChem BioAssay AID1240

System under test: Bcl-2-like protein 10 (Homo sapiens) (UniProt Q9HD36)
Sequence (Q9HD36 whole entry, looked up): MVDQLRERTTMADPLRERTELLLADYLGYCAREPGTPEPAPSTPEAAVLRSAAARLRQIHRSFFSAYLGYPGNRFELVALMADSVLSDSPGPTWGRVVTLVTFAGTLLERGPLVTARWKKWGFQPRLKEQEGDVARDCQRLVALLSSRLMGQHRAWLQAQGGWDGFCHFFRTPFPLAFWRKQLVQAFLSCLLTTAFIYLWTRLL
Measurement protocol: TR3 peptide-Bcl-B binding displacers, biochemical primary FP assay, phenotype converters (AID 1240);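 further: 0% = Bcl-B with tracer peptide and DMSO and 100% = tracer peptide lacking Bcl-B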
Setup conditions: GST-Bcl-B / FITC-TR3 peptide fluorescence polarization; stronger effect = higher value; compound at 3.75 mg/L
The whole screen tested about 50,000 compounds, of which about 800 (1.6%) showed an effect of 50% or more. The sample as a whole holds a higher share of strong results than the screen did.
Rule: 1 (yes) for displacement not less than 10%, 0 (no) for anything less.

- Compound: "COc1cccc2c1NC(c1ccccc1Br)C1CC=CC21 (configuration not stated)"
  System under test: "Bcl-2-like protein 10 (Homo sapiens) (UniProt Q9HD36)"
  Class label: "0 (no)"
- Compound: "O=C(O)c1cccc2c1NC(c1cccc3ccccc13)C1CC=CC21 (configuration not stated)"
  System under test: "Bcl-2-like protein 10 (Homo sapiens) (UniProt Q9HD36)"
  Class label: "1 (yes)"
- Compound: "CN(C)c1ccc(/C=C/C(=O)c2ccc3c(c2)OCCO3)cc1"
  System under test: "Bcl-2-like protein 10 (Homo sapiens) (UniProt Q9HD36)"
  Class label: "0 (no)"
- Compound: "O=C1c2cccc3c(N4CCCCC4)ccc(c23)C(=O)N1c1ccc(Cl)cn1"
  System under test: "Bcl-2-like protein 10 (Homo sapiens) (UniProt Q9HD36)"
  Class label: "1 (yes)"
- Compound: "O=C(Nc1ccccc1C(=O)N=Nc1c(O)[nH]c2ccc([N+](=O)[O-])cc12)c1ccccc1"
  System under test: "Bcl-2-like protein 10 (Homo sapiens) (UniProt Q9HD36)"
  Class label: "0 (no)"
- Compound: "Cc1ccc(-n2cnc3sc(C)c(C)c3c2=O)cc1"
  System under test: "Bcl-2-like protein 10 (Homo sapiens) (UniProt Q9HD36)"
  Class label: "0 (no)"
- Compound: "O=C(O)c1ccc(-c2ccc(OC(F)(F)F)cc2)o1"
  System under test: "Bcl-2-like protein 10 (Homo sapiens) (UniProt Q9HD36)"
  Class label: "0 (no)"
- Compound: "CN1/C(=C\\C=N\\Nc2ccc([N+](=O)[O-])cc2)C(C)(C)c2ccccc21"
  System under test: "Bcl-2-like protein 10 (Homo sapiens) (UniProt Q9HD36)"
  Class label: "0 (no)"
- Compound: "COc1cc2c(C)nc3c(c(C)nn3-c3ccccc3)c2cc1OC"
  System under test: "Bcl-2-like protein 10 (Homo sapiens) (UniProt Q9HD36)"
  Class label: "1 (yes)"
- Compound: "O=[N+]([O-])c1cccc2c1NC(c1ccc(Cl)cc1)C1CC=CC21 (configuration not stated)"
  System under test: "Bcl-2-like protein 10 (Homo sapiens) (UniProt Q9HD36)"
  Class label: "0 (no)"
- Compound: "O=Cc1ccc(/C=C2/SC(=S)N(Cc3ccccc3)C2=O)cc1"
  System under test: "Bcl-2-like protein 10 (Homo sapiens) (UniProt Q9HD36)"
  Class label: "1 (yes)"
- Compound: "O=C(O)c1cccc2c1NC(c1ccccc1Br)C1CC=CC21 (configuration not stated)"
  System under test: "Bcl-2-like protein 10 (Homo sapiens) (UniProt Q9HD36)"
  Class label: "1 (yes)"
- Compound: "COc1cc2c(C)nc3c(c(C)nn3C)c2cc1OC"
  System under test: "Bcl-2-like protein 10 (Homo sapiens) (UniProt Q9HD36)"
  Class label: "0 (no)"
- Compound: "COc1cc(C(=O)Nc2nc3ccc4ccccc4c3s2)cc(OC)c1OC"
  System under test: "Bcl-2-like protein 10 (Homo sapiens) (UniProt Q9HD36)"
  Class label: "0 (no)"
- Compound: "CSc1nnc2c(n1)OC(C(=O)c1ccccc1)Nc1ccccc1-2 (configuration not stated)"
  System under test: "Bcl-2-like protein 10 (Homo sapiens) (UniProt Q9HD36)"
  Class label: "1 (yes)"
- Compound: "O=C(Nc1cc(NC(=O)c2ccccc2)cc(C(=O)Nc2nccs2)c1)c1ccccc1"
  System under test: "Bcl-2-like protein 10 (Homo sapiens) (UniProt Q9HD36)"
  Class label: "0 (no)"
- Compound: "COc1cccc2c1NC(c1ccc(Cl)cc1)C1CC=CC21 (configuration not stated)"
  System under test: "Bcl-2-like protein 10 (Homo sapiens) (UniProt Q9HD36)"
  Class label: "0 (no)"
- Compound: "COc1ccccc1/C=C1/SC(=S)N(Cc2ccccc2)C1=O"
  System under test: "Bcl-2-like protein 10 (Homo sapiens) (UniProt Q9HD36)"
  Class label: "1 (yes)"
- Compound: "CN1CCN(c2ccc3c4c(cccc24)C(=O)N(CCO)C3=O)CC1"
  System under test: "Bcl-2-like protein 10 (Homo sapiens) (UniProt Q9HD36)"
  Class label: "1 (yes)"
- Compound: "Cc1ccc(N2C(=O)C(=O)/C(=C(/O)c3ccccc3)C2c2ccc(O)cc2)cc1Cl (configuration not stated)"
  System under test: "Bcl-2-like protein 10 (Homo sapiens) (UniProt Q9HD36)"
  Class label: "0 (no)"
- Compound: "COc1ccc(/C(C)=N/NC(=O)CN(c2ccc(C)cc2)S(=O)(=O)c2ccccc2)cc1OC"
  System under test: "Bcl-2-like protein 10 (Homo sapiens) (UniProt Q9HD36)"
  Class label: "0 (no)"
- Compound: "CN1C(=O)/C(=C\\c2cn(Cc3ccccc3)c3ccccc23)SC1=S"
  System under test: "Bcl-2-like protein 10 (Homo sapiens) (UniProt Q9HD36)"
  Class label: "0 (no)"
